Assay: Inhibitory activity against mitogen-activated protein kinase p38
Parameters: species or system Homo sapiens
endpoint: Ki (nM)
The response must be a number in nM with no trailing unit.

Worked examples, 2 compounds total:
C[C@H](Nc1nccc(-c2cc(C3CCNCC3)nnc2-c2cccc(C(F)(F)F)c2)n1)c1ccccc1 1.6
c1ccc(C[C@H]2CN(c3cc(-c4ccncc4)c(-c4cccc5ccccc45)nn3)CCN2)cc1 7.3

Q: Which measured Ki value corresponds to `O=C(CO)N1CCN(c2cc(-c3ccncc3)c(-c3cccc4ccccc34)nn2)C[C@@H]1Cc1ccccc1` ?
A: 31.8

Q: Ok, now `O=C(CNc1nccc(-c2cc(C3CCNCC3)nnc2-c2cccc(C(F)(F)F)c2)n1)c1ccc(F)cc1`
A: 1770

###

Test: Inhibitory activity against c-Jun N-terminal kinase 3 (JNK3)
Design: species or system Homo sapiens
endpoint: pKi
Schema: pKi number; meaning minus log10 of the concentration expressed in molar units.

Worked examples, 2 molecules total:
smiles.text	pKi
CC(C)C[C@H]1CN(c2cc(-c3ccncc3)c(-c3cccc4ccccc34)nn2)CCN1	6.19
O=C(CO)N[C@H](CNc1cc(-c2ccncc2)c(-c2cccc3ccccc23)nn1)Cc1ccccc1	6.68

Q: Which measured pKi value corresponds to `c1ccc(C[C@H]2CN(c3cc(-c4ccncc4)c(-c4cccc5ccccc45)nn3)CCN2)cc1` ?
A: 6.80

Q: Ok, now `C[C@H](Nc1nccc(-c2cc(C3CCNCC3)nnc2-c2cccc(C(F)(F)F)c2)n1)c1ccccc1`
A: 5.80

Q: Ok, now `C[C@H](Nc1cc(-c2cc(C3CCNCC3)nnc2-c2cccc(C(F)(F)F)c2)ccn1)c1ccccc1`
A: 5.53

Q: Ok, now `c1ccc(C[C@@H](CNc2cc(-c3ccncc3)c(-c3cccc4ccccc34)nn2)N2CCCC2)cc1`
A: 7.09

###

Listed next: entries and their corresponding IC50.
System: Cell line
Assay: Inhibitory concentration against LPS-induced release of TNF-alpha in human whole blood
Format: functional, cell-based
The response must be a number in nM with no trailing unit.

CC(C)C[C@H]1CN(c2cc(-c3ccncc3)c(-c3cccc4ccccc34)nn2)CCN1 547
c1ccc(C[C@H]2CN(c3cc(-c4ccncc4)c(-c4cccc5ccccc45)nn3)CCN2)cc1 240
N[C@H](CNc1cc(-c2ccncc2)c(-c2cccc3ccccc23)nn1)Cc1ccccc1 165

Q: // fetch Cell line IC50 for `C[C@H](Nc1nccc(-c2cc(C3CCNCC3)nnc2-c2cccc(C(F)(F)F)c2)n1)c1ccccc1`
A: 1560

Q: Ok, now `C[C@H](Nc1cc(-c2cc(C3CCNCC3)nnc2-c2cccc(C(F)(F)F)c2)ccn1)c1ccccc1`
A: 5850

Q: Ok, now `N[C@H](CNc1cc(-c2ccncc2)c(-c2cccc3ccccc23)nn1)Cc1ccc(F)cc1`
A: 948

Q: Ok, now `N[C@H](CNc1cc(-c2ccncn2)c(-c2cccc(C(F)(F)F)c2)nn1)Cc1ccccc1`
A: 1830

###

Assay: Inhibitory activity against mitogen-activated protein kinase p38
Design: species or system Homo sapiens
endpoint: pKi
Schema: pKi number; meaning minus log10 of the concentration expressed in molar units.

Worked examples, 6 compounds total:
compound	pKi
C[C@H](Nc1cc(-c2cc(C3CCNCC3)nnc2-c2cccc(C(F)(F)F)c2)ccn1)c1ccccc1	8.68
O=C(CNc1nccc(-c2cc(C3CCNCC3)nnc2-c2cccc(C(F)(F)F)c2)n1)c1ccccc1	6.15
N[C@H](CNc1cc(-c2ccncc2)c(-c2cccc3ccccc23)nn1)Cc1ccc(F)cc1	8.74
CC(Nc1nccc(-c2cc(C3CCNCC3)nnc2-c2cccc(C(F)(F)F)c2)n1)c1ccc(F)cc1 (stereo unspecified)	7.99
CC(C)N[C@H](CNc1cc(-c2ccncc2)c(-c2cccc3ccccc23)nn1)Cc1ccccc1	7.69
N[C@H](CNc1cc(-c2ccncn2)c(-c2cccc(C(F)(F)F)c2)nn1)Cc1ccccc1	7.25

Q: Which measured pKi value corresponds to `c1ccc(C[C@@H](CNc2cc(-c3ccncc3)c(-c3cccc4ccccc34)nn2)N2CCCC2)cc1` ?
A: 8.04

Q: Ok, now `CC(C)C[C@H]1CN(c2cc(-c3ccncc3)c(-c3cccc4ccccc34)nn2)CCN1`
A: 7.53

Q: Ok, now CC(N)(CNc1cc(-c2ccncn2)c(-c2cccc(C(F)(F)F)c2)nn1)Cc1ccccc1 (stereo unspecified)
A: 6.75

Q: Ok, now `O=C(CO)N[C@H](CNc1cc(-c2ccncc2)c(-c2cccc3ccccc23)nn1)Cc1ccccc1`
A: 7.18

Q: Ok, now `N[C@H](CNc1cc(-c2ccncc2)c(-c2cccc3ccccc23)nn1)Cc1ccccc1`
A: 8.15
